Test system: human peripheral blood neutrophils
assayProtocol: Human peripheral blood neutrophil adhesion system (adhesion to immobilized HUVEC, PMA-stimulated)
Type: cell-based
assayConditions: concentration inhibiting by 50% the PMA-stimulated increase in number of adhered BCECF-AM labeled neutrophils on HUVEC immobilized plate
Under this convention, fulfilled denotes IC50 strictly below 20 µM and not fulfilled denotes IC50 at or above 20 µM.

[[record]]
molecule = "CCCCN1CCN(c2cc(C#N)ccc2[C@H]2CC[C@H](C(C)(C)C)CC2)CC1.Cl [Example 13, hydrochloride]"
assignedclass = "not fulfilled"

[[record]]
molecule = "CCCCN1CCN(c2ccc(N3CCC(OC)CC3)cc2C2=CCC(C(C)(C)C)CC2)CC1.Cl (racemic) [Example 7, hydrochloride]"
assignedclass = "fulfilled"

[[record]]
molecule = "CCCCN1CCN(c2cc(C#N)ccc2[C@H]2CC[C@@H](C(C)(C)C)CC2)CC1.Cl [Example 12, hydrochloride]"
assignedclass = "fulfilled"

[[record]]
molecule = "CCCCN1CCN(c2ccccc2C2CC(C)(C)CC(C)(C)C2)CC1.Cl [Example 8, hydrochloride]"
assignedclass = "not fulfilled"


All values here come from patent US7410971B2.
